- Target or system: T1, Chp2 (full-length, wild type) (S. pombe, UniProt O42934 1-380)
- T1 sequence (looked up): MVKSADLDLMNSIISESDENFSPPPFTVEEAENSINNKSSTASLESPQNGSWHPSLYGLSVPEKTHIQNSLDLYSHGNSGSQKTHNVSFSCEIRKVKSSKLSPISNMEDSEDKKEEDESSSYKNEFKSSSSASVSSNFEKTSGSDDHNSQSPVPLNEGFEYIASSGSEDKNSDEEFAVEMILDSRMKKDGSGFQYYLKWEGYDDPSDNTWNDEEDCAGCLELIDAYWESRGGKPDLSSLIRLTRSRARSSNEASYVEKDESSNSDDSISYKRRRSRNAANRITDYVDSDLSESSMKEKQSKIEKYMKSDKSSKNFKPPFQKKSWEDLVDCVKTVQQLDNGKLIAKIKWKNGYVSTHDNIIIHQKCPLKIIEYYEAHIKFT
- Assay explanation: fluorescence polarisation
Quantity name: pKd
Answers are plain numbers, as −log10 of the molar value.

Recorded pKd (binder EKAKTSNVCVCIPCKSAEQ [Sgo1 peptide] ): 4.23

Recorded values, source paper PMC5693750.
